Tested on: IL-4 production
Assay: Test 1: inhibition of IL-4 production in human T-cell strain ATL-16T(-) stimulated with PMA (R&D Systems EIA)
Format: cell-based
Conditions: 10^-5 M, ATL-16T(-) 1×10^6 cells/0.5 ml/well, 20 nM PMA, 48 hours, read-out: Inhibition rate of IL-4 production
Readout Name: inhibition at 10 µM (%)
Respond numerically; units are % and should not be typed.

Prompt: Complete the entry with inhibition at 10 µM for COc1cnc(/C=C/C(O)c2ccccc2)cc1O (stereo not shown) [Ex. 24]
Response: 92.2

Prompt: Complete the entry with inhibition at 10 µM for CCOC(=O)CCCCCOc1cc(/C=C/C(=O)c2ccccc2)ncc1OC [Ex. 12]
Response: 78.6

Prompt: Complete the entry with inhibition at 10 µM for COCCOCOc1cc(/C=C/C(=O)c2ccccc2)ncc1OC [Ex. 48]
Response: 111

Prompt: Complete the entry with inhibition at 10 µM for COc1cnc(/C=C/C(=O)c2ccccc2)cc1OCc1ccccc1 [Ex. 3]
Response: 98.9
